SYSTEM_UNDER_TEST: human Cav3.2 channels (Homo sapiens, UniProt O95180)
Construct: expressed in transfected cells; host or cells: HEK293 cells (ATCC No. CRL-1573), plasmid pcDNA3.1(+)
Sequence (O95180 whole entry): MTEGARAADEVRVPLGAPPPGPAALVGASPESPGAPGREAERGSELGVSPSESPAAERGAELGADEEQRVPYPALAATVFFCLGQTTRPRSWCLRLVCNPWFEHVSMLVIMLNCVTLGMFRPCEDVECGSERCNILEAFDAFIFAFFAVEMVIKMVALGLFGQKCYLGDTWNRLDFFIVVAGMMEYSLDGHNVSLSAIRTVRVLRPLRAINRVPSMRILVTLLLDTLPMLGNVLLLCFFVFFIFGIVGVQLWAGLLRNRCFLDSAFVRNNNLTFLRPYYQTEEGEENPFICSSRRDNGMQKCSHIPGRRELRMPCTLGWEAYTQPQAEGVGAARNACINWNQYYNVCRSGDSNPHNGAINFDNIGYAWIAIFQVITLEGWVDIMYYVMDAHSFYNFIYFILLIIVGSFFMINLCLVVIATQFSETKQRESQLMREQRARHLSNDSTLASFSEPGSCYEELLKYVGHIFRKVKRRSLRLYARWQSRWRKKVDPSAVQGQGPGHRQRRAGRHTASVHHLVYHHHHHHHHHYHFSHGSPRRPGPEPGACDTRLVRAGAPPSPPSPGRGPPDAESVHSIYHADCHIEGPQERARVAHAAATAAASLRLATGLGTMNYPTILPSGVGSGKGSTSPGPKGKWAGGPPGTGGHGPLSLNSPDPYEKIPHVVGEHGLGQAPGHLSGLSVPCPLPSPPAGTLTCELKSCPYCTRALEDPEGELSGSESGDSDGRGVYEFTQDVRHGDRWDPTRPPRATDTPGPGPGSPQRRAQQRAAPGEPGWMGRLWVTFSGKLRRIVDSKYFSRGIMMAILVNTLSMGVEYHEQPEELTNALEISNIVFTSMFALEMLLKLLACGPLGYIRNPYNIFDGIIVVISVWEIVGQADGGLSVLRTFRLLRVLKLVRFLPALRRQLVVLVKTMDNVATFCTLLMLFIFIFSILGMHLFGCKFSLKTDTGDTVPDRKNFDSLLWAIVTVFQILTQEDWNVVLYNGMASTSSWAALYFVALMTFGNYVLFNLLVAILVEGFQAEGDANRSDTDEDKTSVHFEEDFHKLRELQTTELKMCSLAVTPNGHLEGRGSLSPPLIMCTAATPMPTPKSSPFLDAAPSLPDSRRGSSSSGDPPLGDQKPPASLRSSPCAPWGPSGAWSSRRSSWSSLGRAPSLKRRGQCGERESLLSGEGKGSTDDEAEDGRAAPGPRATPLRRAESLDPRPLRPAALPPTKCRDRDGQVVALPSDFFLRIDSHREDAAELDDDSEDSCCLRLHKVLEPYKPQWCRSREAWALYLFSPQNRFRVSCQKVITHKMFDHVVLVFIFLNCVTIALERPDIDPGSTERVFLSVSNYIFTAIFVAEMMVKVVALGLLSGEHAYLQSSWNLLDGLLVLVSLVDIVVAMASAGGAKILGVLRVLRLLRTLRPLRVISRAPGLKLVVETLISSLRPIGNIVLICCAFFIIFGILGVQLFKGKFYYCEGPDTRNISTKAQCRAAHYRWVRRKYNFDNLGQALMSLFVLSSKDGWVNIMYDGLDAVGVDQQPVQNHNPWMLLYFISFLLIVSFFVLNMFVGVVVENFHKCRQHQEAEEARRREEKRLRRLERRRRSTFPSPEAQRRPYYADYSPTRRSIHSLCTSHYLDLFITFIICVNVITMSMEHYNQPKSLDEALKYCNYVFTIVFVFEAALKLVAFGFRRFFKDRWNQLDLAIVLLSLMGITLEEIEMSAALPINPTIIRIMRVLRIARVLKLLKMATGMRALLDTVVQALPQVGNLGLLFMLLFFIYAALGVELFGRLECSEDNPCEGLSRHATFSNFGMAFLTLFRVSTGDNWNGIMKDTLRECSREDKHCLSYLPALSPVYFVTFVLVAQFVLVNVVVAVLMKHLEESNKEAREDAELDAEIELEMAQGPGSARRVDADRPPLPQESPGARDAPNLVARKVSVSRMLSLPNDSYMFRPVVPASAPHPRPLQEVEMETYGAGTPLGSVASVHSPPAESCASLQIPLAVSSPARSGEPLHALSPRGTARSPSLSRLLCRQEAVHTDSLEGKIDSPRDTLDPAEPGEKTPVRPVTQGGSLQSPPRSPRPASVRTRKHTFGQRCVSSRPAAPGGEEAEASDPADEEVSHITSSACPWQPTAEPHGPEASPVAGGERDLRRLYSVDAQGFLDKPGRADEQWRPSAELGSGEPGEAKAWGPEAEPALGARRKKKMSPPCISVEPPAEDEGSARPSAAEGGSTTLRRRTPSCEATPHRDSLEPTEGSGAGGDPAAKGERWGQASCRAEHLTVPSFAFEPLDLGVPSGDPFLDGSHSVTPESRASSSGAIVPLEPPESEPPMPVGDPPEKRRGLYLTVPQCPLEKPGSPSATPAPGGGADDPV
TEST_DESCRIPTION: Intracellular calcium concentration measurement (Fluo-4 AM) in stable cells expressing human Cav3.2 channels, buffer A / buffer B
Assay type: cell-based
CONDITIONS_USED: Tables 2 to 6; buffer A, equilibrium potential of potassium −92 mV; read-out: Inhibitory action of buffer A (inactivated state)
pIC50: −log10 of the molar value.
MEASURE: pIC50

Observe how each entry below is paired with its result.
COMPOUND | MEASURE | RESULT
C[C@@H](NC(=O)[C@H]1C[C@@H]1c1nc2ccccc2[nH]1)c1cc2cc(F)ccc2s1 | pIC50 | ≥ 7.00
C[C@@H](NC(=O)[C@H]1C[C@@H]1c1nc2ccccc2[nH]1)c1ccc(C(=O)N2CCCC2)s1 | pIC50 | 6.00 to 7.00
CCn1c(C2CC2C(=O)N[C@H](C)c2ccc(OCC(F)(F)F)s2)nc2ccccc21 (single isomer, unassigned) | pIC50 | ≥ 7.00
C[C@@H](NC(=O)C1CC1c1nc2cc(Cl)ccc2o1)c1cc2cc(F)ccc2o1 (single isomer, unassigned) [Example 108A] | pIC50 | 6.00 to 7.00
C[C@@H](NC(=O)[C@H]1C[C@@H]1c1nc2ccccc2[nH]1)c1ccc(C(=O)N2CCC(F)(F)C2)s1 | pIC50 | 6.00 to 7.00

Asked: Quick one: pIC50 for C[C@@H](NC(=O)C1CC1c1nccn1C)c1ccc(OCC(F)(F)F)s1 (mixture of isomers) ?
Given back: 5.00 to 6.00

Asked: Quick one: pIC50 for C[C@@H](NC(=O)C1CC1c1nc2cc(Cl)ccc2[nH]1)c1cnc(OCC(F)(F)F)s1 (single isomer, unassigned) [Example 64B] ?
Given back: 5.00 to 6.00

Asked: Quick one: pIC50 for C[C@@H](NC(=O)C1CC1c1cn(C)c2ccccc12)c1ccc(OCC(F)(F)F)s1 (single isomer, unassigned) [Example 29A] ?
Given back: < 5.00

Asked: Quick one: pIC50 for C[C@@H](NC(=O)C1CC1c1c[nH]c2ccccc12)c1cc2cc(F)ccc2o1 (single isomer, unassigned) [Example 98B] ?
Given back: 6.00 to 7.00
